target: human Nav1.8 (Homo sapiens, UniProt Q9Y5Y9); assay: SyncroPatch384PE assay (automated patch clamp); assay type: cell-based; conditions: inactivated state block (P2 measurement), human Nav1.8/b3 CHO cells, read-out: P2 IC50
Sequence (Q9Y5Y9 whole entry): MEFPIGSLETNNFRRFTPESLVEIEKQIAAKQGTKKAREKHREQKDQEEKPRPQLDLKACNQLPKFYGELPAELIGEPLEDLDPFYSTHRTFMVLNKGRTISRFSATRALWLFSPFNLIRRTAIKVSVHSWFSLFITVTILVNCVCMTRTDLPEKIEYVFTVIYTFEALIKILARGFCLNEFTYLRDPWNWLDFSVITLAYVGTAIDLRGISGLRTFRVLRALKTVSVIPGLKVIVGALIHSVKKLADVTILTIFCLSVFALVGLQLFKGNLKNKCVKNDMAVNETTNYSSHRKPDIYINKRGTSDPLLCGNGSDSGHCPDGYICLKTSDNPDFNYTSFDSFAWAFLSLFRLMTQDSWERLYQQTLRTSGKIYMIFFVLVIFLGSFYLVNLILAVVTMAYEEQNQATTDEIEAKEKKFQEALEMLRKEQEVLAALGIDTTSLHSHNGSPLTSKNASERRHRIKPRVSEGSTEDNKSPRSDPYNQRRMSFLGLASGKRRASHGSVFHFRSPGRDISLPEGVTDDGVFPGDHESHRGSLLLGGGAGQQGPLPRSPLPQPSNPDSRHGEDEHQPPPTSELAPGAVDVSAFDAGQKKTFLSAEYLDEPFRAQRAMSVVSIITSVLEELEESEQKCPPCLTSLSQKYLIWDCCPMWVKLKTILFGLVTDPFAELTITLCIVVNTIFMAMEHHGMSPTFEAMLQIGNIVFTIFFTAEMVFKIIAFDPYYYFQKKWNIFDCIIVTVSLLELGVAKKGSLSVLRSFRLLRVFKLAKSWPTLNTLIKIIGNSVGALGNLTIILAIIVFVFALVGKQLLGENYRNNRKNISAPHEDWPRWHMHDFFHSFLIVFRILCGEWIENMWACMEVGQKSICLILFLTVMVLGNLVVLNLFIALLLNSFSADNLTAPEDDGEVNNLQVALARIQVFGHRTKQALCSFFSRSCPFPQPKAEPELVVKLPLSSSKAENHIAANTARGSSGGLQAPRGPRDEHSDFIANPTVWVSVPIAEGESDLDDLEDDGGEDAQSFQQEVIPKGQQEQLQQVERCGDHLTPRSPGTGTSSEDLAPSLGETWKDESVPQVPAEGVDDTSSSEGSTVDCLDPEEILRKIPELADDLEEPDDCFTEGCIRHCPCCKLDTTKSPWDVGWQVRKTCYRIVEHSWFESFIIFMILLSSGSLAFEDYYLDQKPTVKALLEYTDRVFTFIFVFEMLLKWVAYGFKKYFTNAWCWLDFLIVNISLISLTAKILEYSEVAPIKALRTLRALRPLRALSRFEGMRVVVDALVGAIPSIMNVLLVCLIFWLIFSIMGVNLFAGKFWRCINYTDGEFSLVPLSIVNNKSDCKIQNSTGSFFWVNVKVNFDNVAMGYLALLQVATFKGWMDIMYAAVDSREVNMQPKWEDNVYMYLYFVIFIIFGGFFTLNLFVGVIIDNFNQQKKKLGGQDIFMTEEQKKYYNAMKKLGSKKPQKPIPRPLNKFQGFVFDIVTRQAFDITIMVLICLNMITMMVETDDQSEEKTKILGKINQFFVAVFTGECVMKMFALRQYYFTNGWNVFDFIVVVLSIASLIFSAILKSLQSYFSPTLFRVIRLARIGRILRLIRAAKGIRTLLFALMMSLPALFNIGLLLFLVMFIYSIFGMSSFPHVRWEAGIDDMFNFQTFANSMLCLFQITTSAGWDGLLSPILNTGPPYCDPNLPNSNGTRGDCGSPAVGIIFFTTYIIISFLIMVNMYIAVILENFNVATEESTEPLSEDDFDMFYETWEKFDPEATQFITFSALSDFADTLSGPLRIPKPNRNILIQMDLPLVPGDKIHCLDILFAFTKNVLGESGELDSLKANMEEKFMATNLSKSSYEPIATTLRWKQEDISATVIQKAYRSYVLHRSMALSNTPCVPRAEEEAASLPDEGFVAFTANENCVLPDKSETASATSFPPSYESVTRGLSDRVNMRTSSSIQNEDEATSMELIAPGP
Measured Property: IC50

>>> result("Cc1c(C(=O)Nc2cccc([S@](C)(=N)=O)c2)c(N2CCCC(F)(F)CC2)nc(C(F)(F)F)c1-c1cnn(C)c1 [Example 133]")
"≤ 5 nM"
>>> result("Cc1c(C(F)(F)F)nnc(N2CCCC(F)(F)CC2)c1C(=O)Nc1cccc([S@@](C)(=O)=NC(=O)CN2CC(F)(F)C2)c1 [Example 198]")
"≤ 5 nM"

Let us move to another entry and its IC50.
Task: Can you share its IC50? I mean this molecule: Cc1c(-c2ccc(C#N)cc2)nnc(N2CCCC(F)(F)CC2)c1C(=O)Nc1cccc([S@](C)(=N)=O)c1 [Example 154]
Result: 50 to 100 nM

---

molecular target: human Nav1.8 (Homo sapiens, UniProt Q9Y5Y9); test: SyncroPatch384PE assay (automated patch clamp); type: cell-based; conditions: resting state block (P1 measurement), human Nav1.8/b3 CHO cells, read-out: P1 IC50
pIC50: −log10 of the molar value.
Measured Property: pIC50

Would you please look over these solved cases?
>>> result("Cc1noc(C)c1-c1cnc(N2CCCC(F)(F)CC2)c(C(=O)Nc2cccc([S@](C)(=N)=O)c2)c1C")
"< 6.70"
>>> result("Cc1c(C(F)(F)F)nnc(N2CCCC(F)(F)CC2)c1C(=O)Nc1ccnnc1")
"< 6.70"
>>> result("CNCC(=O)N=[S@](C)(=O)c1cccc(NC(=O)c2c(N3CCCC(F)(F)CC3)ncc(C#N)c2C)c1")
"≥ 8.30"

Task: Can you share its pIC50? I mean this molecule: Cc1nc(N2CCCC(F)(F)CC2)c(C(=O)Nc2cccc([S@@](C)(=N)=O)c2)c(C)c1C(F)(F)F (single isomer, unassigned)
Result: ≥ 8.30

---

System: rat plasma protein
Experiment: Rat plasma protein binding by equilibrium dialysis
Format: in vitro ADME
Details: ratio of unbound % sulfoximine / comparator sulfonamide
Excerpt: Table 3 presents the human and rat plasma protein binding data (% unbound) for the compounds of Table 2. Comparator compounds A, B, C have been previously reported as inhibitors of Na, 1.8 in WO2020/092667. Comparator D, not previously reported, is offered as an additional sulfonamido example.
Measured Property: Fold increase vs Comparator (rat plasma unbound) (×)

>>> measured_number("CS(=N)(=O)c1cccc(NC(=O)c2cc(C(F)(F)F)nnc2N2CCCC(F)(F)CC2)c1 (stereo not shown) [Compound E]")
2.4
>>> measured_number("Cc1nc(N2CCCC(F)(F)CC2)c(C(=O)Nc2cccc([S@](C)(=N)=O)c2)cc1C(F)(F)F [Example 4]")
6.1

P = Cc1nc(N2CCCC(F)(F)CC2)c(C(=O)Nc2ccnc(S(C)(=N)=O)c2)cc1C(F)(F)F (stereo not shown) [Example 101]
Q = Cc1nc(N2CCCC(F)(F)CC2)c(C(=O)Nc2cccc(S(C)(=N)=O)c2)cc1Cl (stereo in doubt) [Example 17]
Task: Of P versus Q , which is the one with smaller reported Fold increase vs Comparator (rat plasma unbound)? API: response body contains the label of the selected item.
Result: Q
(Q: 1.9 ×, P: 6.8 ×)

---

biological target: human Nav1.8 (Homo sapiens, UniProt Q9Y5Y9); assay: SyncroPatch384PE assay (automated patch clamp); assay type: cell-based; conditions: inactivated state block (P2 measurement), human Nav1.8/b3 CHO cells, read-out: P2 IC50
Measured Property: IC50

Would you please look over these solved cases?
>>> result("Cc1c(C(F)(F)F)nnc(N2CCCC(F)(F)CC2)c1C(=O)Nc1cccc([S@@](C)(=O)=NC(=O)C(C)(C)N)c1")
"≤ 5 nM"
>>> result("Cc1c(C(N)=O)cnc(N2CCCC(F)(F)CC2)c1C(=O)Nc1cccc([S@](C)(=N)=O)c1")
"> 200 nM"
>>> result("Cc1c(C(F)(F)F)nnc(N2CCCC(F)(F)CC2)c1C(=O)Nc1cccc([S@@](C)(=N)=O)c1")
"5 to 50 nM"

Task: Lab request: please report IC50 under test system human Nav1.8 (Homo sapiens, UniProt Q9Y5Y9) for "Cc1c(C(=O)Nc2cccc([S@](C)(=N)=O)c2)c(N2CCCC(F)(F)CC2)nc(C(F)(F)F)c1-c1ccc(C#N)cc1"
Result: ≤ 5 nM

Task: Lab request: please report IC50 under test system human Nav1.8 (Homo sapiens, UniProt Q9Y5Y9) for Cc1c(-c2nccs2)cnc(N2CCCC(F)(F)CC2)c1C(=O)Nc1cccc(S(C)(=N)=O)c1 (stereo not shown)
Result: 5 to 50 nM

Task: Lab request: please report IC50 under test system human Nav1.8 (Homo sapiens, UniProt Q9Y5Y9) for "CNCCN=[S@](C)(=O)c1cccc(NC(=O)c2c(N3CCCC(F)(F)CC3)ncc(-c3cnn(C)c3)c2C)c1"
Result: 5 to 50 nM

Task: Lab request: please report IC50 under test system human Nav1.8 (Homo sapiens, UniProt Q9Y5Y9) for "CNCC(=O)N=[S@](C)(=O)c1cccc(NC(=O)c2c(N3CCCC(F)(F)CC3)nnc(C(F)(F)F)c2C)c1"
Result: ≤ 5 nM

---

molecular target: human Nav1.8 (Homo sapiens, UniProt Q9Y5Y9); experiment: SyncroPatch384PE assay (automated patch clamp); format: cell-based; conditions: inactivated state block (P2 measurement), human Nav1.8/b3 CHO cells, read-out: P2 IC50
pIC50: −log10 of the molar value.
Measured Property: pIC50

>>> result("Cc1c(-c2cn[nH]c2)cnc(N2CCCC(F)(F)CC2)c1C(=O)Nc1cccc([S@](C)(=N)=O)c1 [Example 144]")
"< 6.70"
>>> result("Cc1c(-c2cccc(F)c2)cnc(N2CCCC(F)(F)CC2)c1C(=O)Nc1cccc(S(C)(=N)=O)c1 (stereo not shown) [Example 82]")
"≥ 8.30"
>>> result("Cc1c(-c2cnn(C)c2)cnc(N2CCCC(F)(F)CC2)c1C(=O)Nc1cccc([S@@](C)(=O)=NC(=O)C(N)C(F)(F)F)c1 (stereo partly shown) [Example 174]")
"7.30 to 8.30"

Task: Can you share its pIC50? I mean this compound: Cc1c(Cl)c(-c2cnn(C)c2)nc(N2CCCC(F)(F)CC2)c1C(=O)Nc1ccnc([S@](C)(=N)=O)c1 [Example 212]
Result: 7.30 to 8.30

Task: Can you share its pIC50? I mean this compound: C=CCCc1ccc(C(=O)Nc2cccc([S@@](C)(=N)=O)c2)c(N2CCCC(F)(F)CC2)n1 [Example 30]
Result: ≥ 8.30

Task: Can you share its pIC50? I mean this compound: Cc1c(C(F)(F)F)nnc(N2CCCC(F)(F)CC2)c1C(=O)Nc1ccnc(S(C)(=N)=O)c1 (stereo not shown) [Example 102]
Result: 7.30 to 8.30

Task: Can you share its pIC50? I mean this compound: Cc1c(C#N)c(C(F)(F)F)nc(N2CCCC(F)(F)CC2)c1C(=O)Nc1cccc([S@@](C)(=O)=NC(=O)C2(N)CCC2)c1 [Example 73]
Result: 7.30 to 8.30

---

target: UniProt Q9Y5Y9; test: Sophion Qpatch II assay (automated patch clamp); type: cell-based; conditions: resting state block (TP1 measurement), human Nav1.8 HEK293 cells, read-out: P1 IC50
Recorded measurements of IC50, one per entry

Task: Lab request: please report IC50 under test system UniProt Q9Y5Y9 for "Cc1c(C(F)(F)F)cnc(N2CCC(F)(F)CC2)c1C(=O)Nc1cccc([S@](C)(=N)=O)c1"
Result: 5 to 50 nM

Task: Lab request: please report IC50 under test system UniProt Q9Y5Y9 for "Cc1c(C(=O)Nc2ccnc([S@](C)(=N)=O)c2)c(N2CCCC(F)(F)CC2)nc(C2CC2)c1C(F)(F)F"
Result: 5 to 50 nM

Task: Lab request: please report IC50 under test system UniProt Q9Y5Y9 for "C[S@@](=N)(=O)c1cc(NC(=O)c2cc(Cl)c(C(F)(F)F)cc2N2CCC(F)(F)CC2)ccc1F"
Result: 5 to 50 nM

Task: Lab request: please report IC50 under test system UniProt Q9Y5Y9 for "Cc1c(C(F)(F)F)cnc(N2CCC(C(F)(F)F)CC2)c1C(=O)Nc1cccc([S@](C)(=N)=O)c1"
Result: 5 to 50 nM

Task: Lab request: please report IC50 under test system UniProt Q9Y5Y9 for "Cc1c(C(F)(F)F)cnc(N2CCO[C@@H](C(F)(F)F)C2)c1C(=O)Nc1ccnc([S@](C)(=N)=O)c1"
Result: > 200 nM

Task: Lab request: please report IC50 under test system UniProt Q9Y5Y9 for "C[S@](=N)(=O)c1cccc(NC(=O)c2cc(Cl)c(C(F)(F)F)cc2N2CCC(F)(F)CC2)c1"
Result: 5 to 50 nM

Task: Lab request: please report IC50 under test system UniProt Q9Y5Y9 for "Cc1c(C(=O)Nc2cccc([S@@](C)(=N)=O)c2)c(N2CCCC(F)(F)CC2)nc(C2CC2)c1C(F)(F)F"
Result: ≤ 5 nM
